# assay system: T1, soluble cynomolgus GPNMB (recombinant extracellular domain) (cynomolgus, UniProt Q14956 23-499 (human entry), limits assumed)
# T1 chain: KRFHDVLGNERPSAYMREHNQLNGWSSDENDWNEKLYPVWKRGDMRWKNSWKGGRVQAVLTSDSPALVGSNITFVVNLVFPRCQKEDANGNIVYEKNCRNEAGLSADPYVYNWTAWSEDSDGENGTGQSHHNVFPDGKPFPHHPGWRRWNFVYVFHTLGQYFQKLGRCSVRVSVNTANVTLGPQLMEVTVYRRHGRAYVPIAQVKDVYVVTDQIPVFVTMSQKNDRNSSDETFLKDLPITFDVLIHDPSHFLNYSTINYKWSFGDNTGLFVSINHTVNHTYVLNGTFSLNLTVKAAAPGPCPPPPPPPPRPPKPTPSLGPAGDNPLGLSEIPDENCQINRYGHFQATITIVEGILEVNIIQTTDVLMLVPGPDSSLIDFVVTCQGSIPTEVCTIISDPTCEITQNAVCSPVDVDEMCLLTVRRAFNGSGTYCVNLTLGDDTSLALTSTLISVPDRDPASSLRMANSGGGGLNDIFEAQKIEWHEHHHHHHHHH
# experiment notes: SPR binding
experimental readout: binding result

Lab book: binding result of anti-GPNMB antibody GPN-65 (antibody, human IgG1, V domains shown, chimeric) VH: QLQLQQSGTEVVKPGASVKIPCKASGYAFSSYWMNWVKQRPGKGLEWIGQIYPGDGDTNDNGKFEGKATLTVDKSSNTAYIQLSSLTSEDSAVYFCARSPLHLRGSMDYWGQGTSVTVSS VL: SIVMTQTPKFLLVSAGDRVTITCKASQSVSNDVAWFQQKPGQSPELLIYSASNRYTGVPDRFTGSGYGTDFTFTISTVQAEDLAVYFCQQNYYSPFTFGGGTRLEIK noted as binds

Lab book: binding result of anti-GPNMB antibody GPN-41 (antibody, human IgG1, V domains shown, chimeric) VH: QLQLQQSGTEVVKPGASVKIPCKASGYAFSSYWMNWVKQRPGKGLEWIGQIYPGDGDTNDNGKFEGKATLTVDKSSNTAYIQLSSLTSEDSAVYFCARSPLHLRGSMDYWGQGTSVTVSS VL: SIVMTQTPKFLLVSAGDRVTITCKASQSVSNDVAWFQQKPGQSPELLIYSASNRYTGVPDRFTASGYGTDFTFTISAVQAEDLAVYFCQQNYYSPFTFGGGTRLEIK noted as binds

Lab book: binding result of anti-GPNMB antibody GPN-38 (antibody, human IgG1, V domains shown, chimeric) VH: QVQLQQPGAELVRPGTSVRLSCKASGYTFTSYWIHWVKQRPGRGLEWIGVIDPSDSYTNYNQQFNVKATLTVDTSSSAAYMQLSSLTSEDSAVYYCARGLITAVNWYFDVWGTGTTVTVSS VL: DIQMTQSPASLSTSVGEIVTITCRASENIYSYLTWYQQKQGKSPQLLVYNAKTLAEGVPSRFSGSGSGTQFSLKINSLQPEDFGTYYCQHHYGTPLTFGSGTKLEIK noted as binds
